Numbers sourced from patent US12599560B2.

assay: Particle size and PDI by dynamic light scattering; type: physicochemical; settings: Table 2; polydispersity value
Label key: Criterion met means PDI under 0.1; Criterion not met means PDI of 0.1 or more.

Compound: CCCCCCCCCCCCNC(=O)C(O)CN(CCCC(=O)NCCCN1CCN(CCCNC(=O)CCCN(CC(O)C(=O)NCCCCCCCCCCCC)CC(O)C(=O)NCCCCCCCCCCCC)CC1)CC(O)C(=O)NCCCCCCCCCCCC (stereo not shown)
Class: Criterion not met

Compound: CCCCCCCCC(CCCCCC)C(=O)OCCCCCCOC(=O)C(O)CN(CCCN1CCN(CCCN(CC(O)C(=O)OCCCCCCOC(=O)C(CCCCCC)CCCCCCCC)CC(O)C(=O)OCCCCCCOC(=O)C(CCCCCC)CCCCCCCC)CC1)CC(O)C(=O)OCCCCCCOC(=O)C(CCCCCC)CCCCCCCC (stereo not shown)
Class: Criterion not met

Compound: CCCC/C=C\CCOCOCCCCOC(=O)C(O)CN(CCN1CCN(CCN(CC(O)C(=O)OCCCCOCOCC/C=C\CCCC)CC(O)C(=O)OCCCCOCOCC/C=C\CCCC)CC1)CCN(CC(O)C(=O)OCCCCOCOCC/C=C\CCCC)CC(O)C(=O)OCCCCOCOCC/C=C\CCCC (stereo not shown)
Class: Criterion met

Compound: CCCCCCC(CCCCCC)C(=O)OCCCCOC(=O)C(O)CN1CCN(CCN(CC(O)C(=O)OCCCCOC(=O)C(CCCCCC)CCCCCC)CC(O)C(=O)OCCCCOC(=O)C(CCCCCC)CCCCCC)CC1 (stereo not shown)
Class: Criterion not met

Compound: CCCCCCC(CCCCCC)C(=O)OCCCCCCOC(=O)C(O)CN1CCN(CCN(CC(O)C(=O)OCCCCCCOC(=O)C(CCCCCC)CCCCCC)CC(O)C(=O)OCCCCCCOC(=O)C(CCCCCC)CCCCCC)CC1 (stereo not shown)
Class: Criterion not met

Compound: CCCCCCC(CCCCCC)C(=O)OCCCCCCOC(=O)C(O)CN(CCN1CCN(CCN(CC(O)C(=O)OCCCCCCOC(=O)C(CCCCCC)CCCCCC)CC(O)C(=O)OCCCCCCOC(=O)C(CCCCCC)CCCCCC)CC1)CCN(CC(O)C(=O)OCCCCCCOC(=O)C(CCCCCC)CCCCCC)CC(O)C(=O)OCCCCCCOC(=O)C(CCCCCC)CCCCCC (stereo not shown)
Class: Criterion met

Compound: CCCCCCCCCCNC(=O)C(O)CN(CCN1CCN(CCN(CC(O)C(=O)NCCCCCCCCCC)CC(O)C(=O)NCCCCCCCCCC)CC1)CCN(CC(O)C(=O)NCCCCCCCCCC)CC(O)C(=O)NCCCCCCCCCC (stereo not shown)
Class: Criterion not met

Compound: CCCCCCCCC(CCCCCC)C(=O)OCCCCCCOC(=O)C(O)CN1CCN(CCN(CC(O)C(=O)OCCCCCCOC(=O)C(CCCCCC)CCCCCCCC)CC(O)C(=O)OCCCCCCOC(=O)C(CCCCCC)CCCCCCCC)CC1 (stereo not shown)
Class: Criterion not met

Compound: CC/C=C\CCOCOCCCCCCOC(=O)C(O)CN(CCN1CCN(CCN(CC(O)C(=O)OCCCCCCOCOCC/C=C\CC)CC(O)C(=O)OCCCCCCOCOCC/C=C\CC)CC1)CCN(CC(O)C(=O)OCCCCCCOCOCC/C=C\CC)CC(O)C(=O)OCCCCCCOCOCC/C=C\CC (stereo not shown)
Class: Criterion met

Compound: CCCCCCCCCCCCNC(=O)C(O)CN(CCC(=O)NCCCN1CCN(CCCNC(=O)CCN(CC(O)C(=O)NCCCCCCCCCCCC)CC(O)C(=O)NCCCCCCCCCCCC)CC1)CC(O)C(=O)NCCCCCCCCCCCC (stereo not shown)
Class: Criterion not met
